The reported numbers originate from PubChem BioAssay (NCI).

- System: UACC-62 melanoma
- METHOD: NCI-60 one-dose screen, 48 h
- ASSAY_CONDITIONS: 10 µM unless noted
About 83,000 compounds went through this panel and 20% of them were active in at least one assay; those are over-represented in the sample as a whole. Calls of active or inactive are those of the source. How the source made its calls: active means growth percent below 10; inactive means the rest.
Allowed answers: active, inactive

Outcome? O=C(NO)c1ccc(Cn2c(=O)n(-c3ccccc3)c(=O)c3ccccc32)cc1
active

Outcome? CCSc1sc(-c2ccc(C)cc2)nc1[P+](c1ccccc1)(c1ccccc1)c1ccccc1
active

Outcome? CC(=O)O[C@H]1CC[C@@]2(C)C(=CC[C@@H]3[C@@H]2CC[C@]2(C)C(=O)N(O)C(=O)C[C@@H]32)C1
inactive

Outcome? N=C(N)c1ccc(S(N)(=O)=O)cc1
inactive

Outcome? CC[C@H](CC[C@@H](C)[C@H]1CC[C@H]2[C@@H]3/C(=C/c4cccnc4)C(=O)C4=CC(=O)CC[C@]4(C)[C@H]3CC[C@]12C)C(C)C
inactive

* * *

- Test system: MDA-MB-435 melanoma
- METHOD: NCI-60 one-dose screen, 48 h
- ASSAY_CONDITIONS: 10 µM unless noted
The panel holds about 83,000 compounds, 20% with a hit somewhere; the sample as a whole holds those more often. Activity calls are given as the source filed them. Rule for the calls: active = growth percent below 10; inactive = the rest.
Allowed answers: 1.0 (active), 0.0 (inactive)

Outcome? N#CCCCCCn1c2ccccc2c2c3c(c4c5ccccc5n(CCCCCC#N)c4c21)C(=O)N(O)C3=O
0.0

Outcome? C=C(C)[C@@H]1CC[C@]2(C)CC[C@]3(C)[C@H](CC[C@@H]4[C@@]5(C)CCCNC(C)(C)[C@@H]5CC[C@]43C)[C@@H]12
0.0

Outcome? C#Cc1cc2c(N)c(C(=O)c3cc(OC)c(OC)c(OC)c3)[nH]c2cc1OC
1.0

Outcome? Oc1cc(/C=C/c2nc(N3CCOCC3)c3cc(Cl)c(Cl)cc3n2)cc(O)c1O
0.0

* * *

- Tested on: SR leukemia
- METHOD: NCI-60 one-dose screen, 48 h (100 = growth as untreated, 0 = no growth, -100 = all killed)
- ASSAY_CONDITIONS: 10 µM unless noted
This is part of a sample that, as a whole, favours compounds with a hit. Of some 83,000 tested, about 20% had one in any assay.
PROPERTY_LABEL: growth (%)
// note: answer is a bare numeric in %

Entry COc1cccc(-c2nn(-c3ccccc3)cc2-c2ccnc(NCCNS(=O)(=O)c3cccc(F)c3)c2)c1 has what growth?
9.17

Entry c1ccc(CN2C(c3ccccc3)=Nc3ccccc3C2c2c[nH]c3ccccc23)cc1 (stereo not given) has what growth?
-17.8

Entry CCc1nnc(NC(=O)c2ccoc2COc2ccccc2)s1 has what growth?
26.4

Entry Nc1nc2c(c(=O)[nH]1)C(c1ccc3c(c1)OCO3)C=C(C(=O)O)N2 (stereo not given) has what growth?
103

Entry CCN1CCN(c2nc(C)cc(N(CCCNc3ccnc4cc(Cl)ccc34)Cc3ccco3)n2)CC1 has what growth?
-16.5

* * *

- Test system: RPMI-8226 leukemia
- METHOD: NCI-60 one-dose screen, 48 h (100 = growth as untreated, 0 = no growth, -100 = all killed)
- ASSAY_CONDITIONS: 10 µM unless noted
The panel holds about 83,000 compounds, 20% with a hit somewhere; the sample as a whole holds those more often.
Note to self: growth under 20% means T, ties and anything higher get F.

# check: growth < 20% for CC(=O)Cc1nsc(NC(=O)c2ccoc2COc2ccccc2)n1
F

# check: growth < 20% for C=CC(=O)N[C@H](Cc1ccc(-c2cc(Cl)cc(Cl)c2)cc1)[C@H](O)[C@@H](O)C(=O)O
F

# check: growth < 20% for Brc1ccc2c(c1)c(-c1nc(-c3c[nH]c4ncccc34)cs1)cn2CCCN1CCCCC1
T

# check: growth < 20% for Cn1cc(-c2csc(-c3cn(CCCN4CCCCC4)c4ccc(F)cc34)n2)c2cccnc21
F

# check: growth < 20% for CC(=O)Oc1ccccc1C(=O)/C=C/c1cccc([N+](=O)[O-])c1
T

# check: growth < 20% for Cn1cc(-c2csc(-c3cn(CCN)c4ccc(F)cc34)n2)c2cccnc21
F

# check: growth < 20% for O=S(=O)(NCCNc1cc(-c2cn(-c3ccccc3)nc2-c2cccc(O)c2)ccn1)c1ccc(Br)cc1
T

# check: growth < 20% for C[C@@H](Oc1ccc(C(=O)NS(=O)(=O)C(C)(C)C)cc1C(F)(F)F)c1ccc(Oc2ccccc2)cn1
F

# check: growth < 20% for COc1cc2ncnc(Nc3ccc(Oc4ccnc(C)c4)c(C)c3)c2cc1NC(=O)CC1CCSS1 (stereo not drawn)
T

# check: growth < 20% for O=C(CI)Nc1ccc(O)c2ccccc12
T

# check: growth < 20% for C=C(C)[C@@H]1CC[C@]2(c3nnc(-c4ccncc4)o3)CC[C@]3(C)[C@H](CC[C@@H]4[C@@]5(C)CCC(=O)NC(C)(C)[C@@H]5CC[C@]43C)[C@@H]12
F

# check: growth < 20% for COc1cc2c(cc1-c1c(C)noc1C)ncc1nc(C3CC3)n([C@H](C)COC(F)F)c12
T

# check: growth < 20% for Fc1ccc(Nc2nc(Nc3ccc(-c4nc5ccccc5[nH]4)cc3)nc(N3CCCC3)n2)cc1
T

# check: growth < 20% for COc1cc2nc(Cl)nc(Nc3cccc(C(=O)/C=C/c4ccc(Cl)cc4)c3)c2cc1OC
T

# check: growth < 20% for COc1cccc(-c2nn(-c3ccccc3)cc2-c2ccnc(NCCNS(=O)(=O)c3ccccc3)c2)c1
T

# check: growth < 20% for C=C(C)[C@@H]1CC[C@]2(C)[C@H](CC=C3[C@@H]4CC(C)(C)CC[C@]4(C(=O)OC)CC[C@]32C)[C@@]1(C)CC/C(N)=N/O
F

# check: growth < 20% for Nc1c(C(=O)Nc2c(Cl)cccc2Cl)sc2nc3c(cc12)CCCC3
F

# check: growth < 20% for c1ccc(C2Cc3ccccc3C2=NC2CCCCC2)cc1 (stereo not drawn)
F
